B1: MFF (parent)
chain: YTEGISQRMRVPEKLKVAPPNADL

Variants of: B1
Protocol summary: protein stability index of a GFP-peptide fusion (GPS, HEK-293T) (PSI 1-6); higher = more stable;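 also: lentivirally expressed fusions sorted by FACS into six bins by GFP to DsRed ratio, PSI derived from sequencing read proportions per bin multiplied by bin number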
Condition details: c terminus: a fixed tail appended
Entries and their protein stability index
Property: protein stability index

# Biosequence, Quantitative readout
rows = [
    ("YTEGISQRMRVPEKLKVAPPNARL", 2.95),
    ("YTEGHSQRMRVPEKLKVAPPNADL", 3.81),
    ("YTEGISQRMRVPEKLKTAPPNADL", 2.89),
    ("YTEGISQRMRVPYKLKVAPPNADL", 2.54),
]

Hey, just so you know, these numbers are from the supplement of paper PMC10567573.
